Target: Glutamate NMDA receptor (Rattus norvegicus) (UniProt P35439+Q00959+Q00960+Q00961+Q62645+Q8VHN2+Q9R1M7)
Assay: Depolarizing activity against NMDA receptor in isolated spinal cord of newborn rat.
Assay type: protein-complex assay
EXPERIMENTAL_READOUT: Threshold concentration (µM)

{"columns": ["COMPOUND", "RECORDED_VALUE"],
 "data": [
  ["N[C@@H](C(=O)O)[C@H]1[C@H](C(=O)O)C1(F)F", 30],
  ["NC(C(=O)O)[C@H]1[C@@H](C(=O)O)C1(F)F (single isomer, unassigned)", 1000],
  ["N[C@H](C(=O)O)[C@H]1[C@H](C(=O)O)C1(F)F", 300],
  ["N[C@@H](C(=O)O)[C@@H]1[C@@H](C(=O)O)C1(F)F", 10]
]}

[P] N[C@H](C(=O)O)[C@@H]1[C@H](C(=O)O)C1(F)F
[Q] NC(C(=O)O)[C@@H]1[C@H](C(=O)O)C1(F)F (single isomer, unassigned)
[R] N[C@H](C(=O)O)[C@H]1[C@@H](C(=O)O)C1(F)F
**Query** Sort the 3 compounds by Threshold concentration; largest first, smallest last. Order the labels as requested and give them as your answer.
**Result** Q, P, R

* * *

Molecular target: Glutamate NMDA receptor (Rattus norvegicus) (UniProt P35439+Q00959+Q00960+Q00961+Q62645+Q8VHN2+Q9R1M7)
Test: Relative activity in depolarization to its corresponding CCG(CCG=1) isomer
Format: protein-complex assay
EXPERIMENTAL_READOUT: Ratio of depolarizing activity

{"columns": ["COMPOUND_STRUCTURE_STRING", "RECORDED_VALUE"],
 "data": [
  ["N[C@H](C(=O)O)[C@H]1[C@@H](C(=O)O)C1(F)F", 1.5]
]}

[I] N[C@@H](C(=O)O)[C@@H]1[C@@H](C(=O)O)C1(F)F
[II] N[C@H](C(=O)O)[C@@H]1[C@H](C(=O)O)C1(F)F
[III] N[C@@H](C(=O)O)[C@H]1[C@H](C(=O)O)C1(F)F
**Query** Order the items by recorded Ratio of depolarizing activity; the first position goes to the largest value. # answer = labels listed in requested order
**Result** II, III, I
